Listed here are molecules together with their documented IC50.
Target: S. aureus SPase (Staphylococcus aureus, UniProt P0A070)
Sequence (P0A070 whole entry): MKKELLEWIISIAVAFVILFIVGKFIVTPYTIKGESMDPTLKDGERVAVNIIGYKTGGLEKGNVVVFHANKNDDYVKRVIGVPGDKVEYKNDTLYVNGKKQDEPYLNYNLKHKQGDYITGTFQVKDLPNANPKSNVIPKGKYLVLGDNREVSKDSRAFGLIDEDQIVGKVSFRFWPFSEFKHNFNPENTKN
Experiment: biochemical
Settings: IC 50 (nM) S. aureus, 20 μM substrate, 10 minutes preincubation
Method: Full length His-tagged S. aureus SPase protein was expressed similarly from E. coli BL21(DE3) containing the plasmid pCDF1-SaSpsB and purified similarly to the E. coli protein with the following exceptions. […] All protein concentrations were determined by BCA assay. […]
Where a SMILES comes first, the peptide text is derived from it. [ ]: non-standard residue; d: D form. The star is where a group is joined. Biphenylcarbonyl(4'-Bu) = CCCCc1ccc(-c2ccc(C(=O)*)cc2)cc1; Dab = NCC[C@H](N)C(=O)O; CH2Cl = ClC*
Expressed in nM, but write only the number.

Record CCCCc1ccc(-c2ccc(C(=O)N[C@@H](CCN)C(=O)N[C@H](C(=O)N[C@@H](C)C(=O)N[C@@H](CCCCN)C(=O)N[C@@H](C)C(=O)C3(C)CO3)[C@@H](C)O)cc2)cc1 (single isomer, unassigned) [Compound 207 P1] : what is its IC50 with S. aureus SPase (Staphylococcus aureus, UniProt P0A070)? 1400

Record CCCCc1ccc(-c2ccc(C(=O)N[C@@H](CCN)C(=O)N[C@H](C(=O)N[C@@H](C)C(=O)N[C@@H](CCCCN)C(=O)N[C@@H](C)C(=O)CCl)[C@@H](C)O)cc2)cc1 [Compound 211] ({Biphenylcarbonyl(4'-Bu)}-[Dab]TAKA-CH2Cl) : what is its IC50 with S. aureus SPase (Staphylococcus aureus, UniProt P0A070)? 390
